EXPERIMENTAL_TARGET: recombinant human c-Met/HGF receptor (Homo sapiens)
Construct: His tag (pBlueBacHis2A vector); made in house; host or cells: Hi-5 cells (Trichoplusia ni), baculovirus
Sequence (P08581 1078-1337): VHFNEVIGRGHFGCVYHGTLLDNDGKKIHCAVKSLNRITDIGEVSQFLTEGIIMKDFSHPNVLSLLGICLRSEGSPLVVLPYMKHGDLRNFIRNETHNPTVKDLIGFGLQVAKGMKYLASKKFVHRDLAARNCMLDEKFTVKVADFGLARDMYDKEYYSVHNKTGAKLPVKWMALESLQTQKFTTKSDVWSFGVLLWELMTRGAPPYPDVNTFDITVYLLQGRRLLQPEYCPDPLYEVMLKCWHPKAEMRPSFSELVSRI
EXPERIMENT: In vitro receptor tyrosine kinase assay (DELFIA), c-Met/HGF receptor
Assay type: biochemical
EXPERIMENTAL_CONDITIONS: read-out: CMET IC50
IC50 values, listed per item
RESULT_TYPE: IC50

INSERT INTO assay_data (compound, value_measured) VALUES
  ('Cn1cnc(-c2cc3nccc(Oc4ccc(NC(CC(=O)Nc5ccc(F)cc5)C(F)(F)F)cc4F)c3s2)c1 (stereo not shown)', '0.05 to 0.25 µM'),
  ('O=C(CC(=O)Nc1ccc(Oc2ccnc3cc(C(=O)N4CCCC4)sc23)c(F)c1)Nc1ccccc1 [drawing 280]', '< 0.05 µM'),
  ('CN1CCN(Cc2ccc(-c3cc4nccc(Oc5ccc(NC(=O)N6CCN(c7ccccc7)C6=O)cc5F)c4s3)cc2)CC1', '< 0.05 µM'),
  ('CCn1cnc(-c2cc3nccc(Oc4ccc(NC(=O)C5(C(=O)N(C)c6ccc(F)cc6)CC5)cc4F)c3s2)c1', '0.25 to 0.5 µM');
